target: MATE2-K (Homo sapiens); assay: in vitro; conditions: HEK293 cells expressing MATE2-K
Sequence (Q86VL8 whole entry): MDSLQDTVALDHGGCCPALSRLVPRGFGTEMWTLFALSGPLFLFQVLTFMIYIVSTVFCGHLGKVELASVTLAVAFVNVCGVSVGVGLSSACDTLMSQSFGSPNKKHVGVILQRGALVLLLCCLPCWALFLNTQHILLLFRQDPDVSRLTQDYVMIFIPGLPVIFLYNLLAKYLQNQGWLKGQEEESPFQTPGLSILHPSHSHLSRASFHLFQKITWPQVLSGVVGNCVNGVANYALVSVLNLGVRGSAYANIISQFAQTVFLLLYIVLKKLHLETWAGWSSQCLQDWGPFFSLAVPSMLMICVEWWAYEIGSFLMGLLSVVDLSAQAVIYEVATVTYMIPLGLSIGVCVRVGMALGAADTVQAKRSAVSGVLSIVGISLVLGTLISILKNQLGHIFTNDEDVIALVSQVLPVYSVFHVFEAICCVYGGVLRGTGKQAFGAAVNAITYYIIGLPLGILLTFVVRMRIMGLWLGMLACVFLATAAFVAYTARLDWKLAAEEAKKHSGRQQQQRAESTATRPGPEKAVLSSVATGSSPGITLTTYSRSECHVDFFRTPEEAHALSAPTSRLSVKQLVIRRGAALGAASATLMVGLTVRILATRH
Each entry below carries its reported uptake ratio at 1 min, 2.5 µM.

| Compound | uptake ratio at 1 min, 2.5 µM |
| --- | --- |
| C[N+](C)(C)C[C@H](O)CC(=O)[O-] [LEVOCARNITINE] | < 2 |
| C[C@H]1N=C(N(C)C)N=C(N)N1 [IMEGLIMIN] | > 2 |
| CNS(=O)(=O)CCc1ccc2[nH]cc(C3CCN(C)CC3)c2c1 | > 2 |
| C1CCN2C[C@H]3C[C@H](CN4CCCC[C@@H]34)[C@H]2C1 | > 2 |
| CNC(C)Cc1ccc(OC)cc1 (stereo unspecified) | < 2 |

### Prompt # query: uptake ratio at 1 min, 2.5 µM of entry `CNCCc1c[nH]c2ccc(O)cc12`
### Response > 2

### Prompt Fill blank: measured uptake ratio at 1 min, 2.5 µM of the compound NCCc1ccccc1 [PHENETHYLAMINE] is ____.
### Response < 2

### Prompt Data request, read-out uptake ratio at 1 min, 2.5 µM, for `COc1ccc2[nH]c3c(c2c1)CCNC3`
### Response < 2

### Prompt Can you look up the measured uptake ratio at 1 min, 2.5 µM of `COC(=O)[C@@H]1[C@H]2CC[C@@H](C[C@@H]1O)N2C` for me?
### Response < 2

### Prompt # lookup: uptake ratio at 1 min, 2.5 µM of CNCc1ccc(-c2[nH]c3cc(F)cc4c3c2CCNC4=O)cc1 [RUCAPARIB]
### Response > 2

### Prompt Dear colleague, I am looking for the recorded uptake ratio at 1 min, 2.5 µM of the following compound: O=S(=O)(c1cccc2cnccc12)N1CCCNCC1 [FASUDIL]
### Response > 2

### Prompt Can you look up the measured uptake ratio at 1 min, 2.5 µM of CN(C)CCc1c[nH]c2ccc(CS(=O)(=O)N3CCCC3)cc12 [ALMOTRIPTAN] for me?
### Response > 2

### Prompt // returns reported uptake ratio at 1 min, 2.5 µM for input CC(C)N(CCC(C(N)=O)(c1ccccc1)c1ccccn1)C(C)C (stereo unspecified) [DISOPYRAMIDE]
### Response < 2

### Prompt I have this compound here, O=C(C[S+]([O-])Cc1ccco1)NC/C=C\COc1cc(CN2CCCCC2)ccn1 (stereo unspecified) [LAFUTIDINE] , and I need its recorded uptake ratio at 1 min, 2.5 µM.
### Response < 2

### Prompt Can you share its uptake ratio at 1 min, 2.5 µM? I mean this compound: `CC[C@@H](C(N)=O)N1CCCC1=O`
### Response < 2
